Experiment: Plasma PK of digoxin and rosuvastatin
Conditions: male, human, in vivo, Vz/F, Mean ± SD, plasma; Cocktail (day 1)
quantity: Vd/F (L)

a = C[C@H]1O[C@@H](O[C@H]2[C@@H](O)C[C@H](O[C@H]3[C@@H](O)C[C@H](O[C@H]4CC[C@@]5(C)[C@H](CC[C@@H]6[C@@H]5C[C@@H](O)[C@]5(C)[C@@H](C7=CC(=O)OC7)CC[C@]65O)C4)O[C@@H]3C)O[C@@H]2C)C[C@H](O)[C@@H]1O [digoxin]
b = CC(C)c1nc(N(C)S(C)(=O)=O)nc(-c2ccc(F)cc2)c1/C=C/[C@@H](O)C[C@@H](O)CC(=O)O [rosuvastatin]
stdin: Pick the one with the larger Vd/F: a vs b // return label of chosen record
stdout: b
(b: 5400 L, a: 785 L)

----------
Test: Urine PK of digoxin in men with mCRPC
Format: in vivo, human
Settings: male, human, urine, oral, CLR, Mean ± SD, Enzalutamide + cocktail (day 64)
quantity: CL renal (mL/min)
Provide only the numeric value, understood in mL/min.

Kindly note the recorded CL renal for "C[C@H]1O[C@@H](O[C@H]2[C@@H](O)C[C@H](O[C@H]3[C@@H](O)C[C@H](O[C@H]4CC[C@@]5(C)[C@H](CC[C@@H]6[C@@H]5C[C@@H](O)[C@]5(C)[C@@H](C7=CC(=O)OC7)CC[C@]65O)C4)O[C@@H]3C)O[C@@H]2C)C[C@H](O)[C@@H]1O" , which is 81.7

----------
Test: Plasma PK of digoxin and rosuvastatin
Details: male, human, in vivo, AUClast, Median (range), plasma; Cocktail (day 1)
quantity: AUC(0-t) (ng·h/mL)

1 = CC(C)c1nc(N(C)S(C)(=O)=O)nc(-c2ccc(F)cc2)c1/C=C/[C@@H](O)C[C@@H](O)CC(=O)O [rosuvastatin]
2 = C[C@H]1O[C@@H](O[C@H]2[C@@H](O)C[C@H](O[C@H]3[C@@H](O)C[C@H](O[C@H]4CC[C@@]5(C)[C@H](CC[C@@H]6[C@@H]5C[C@@H](O)[C@]5(C)[C@@H](C7=CC(=O)OC7)CC[C@]65O)C4)O[C@@H]3C)O[C@@H]2C)C[C@H](O)[C@@H]1O [digoxin]
stdin: Looking at 1 and 2 , which one comes out lower in AUC(0-t) terms? // return label of chosen record
stdout: 2
(2: 22.7 ng·h/mL, 1: 56.1 ng·h/mL)

----------
Assay: Plasma PK of digoxin and rosuvastatin
Settings: male, human, in vivo, Vz/F, Median (range), plasma; Cocktail (day 1)
quantity: Vd/F (L)

A = C[C@H]1O[C@@H](O[C@H]2[C@@H](O)C[C@H](O[C@H]3[C@@H](O)C[C@H](O[C@H]4CC[C@@]5(C)[C@H](CC[C@@H]6[C@@H]5C[C@@H](O)[C@]5(C)[C@@H](C7=CC(=O)OC7)CC[C@]65O)C4)O[C@@H]3C)O[C@@H]2C)C[C@H](O)[C@@H]1O [digoxin]
B = CC(C)c1nc(N(C)S(C)(=O)=O)nc(-c2ccc(F)cc2)c1/C=C/[C@@H](O)C[C@@H](O)CC(=O)O [rosuvastatin]
stdin: Looking at A and B , which one comes out lower in Vd/F terms? // return label of chosen record
stdout: A

----------
Test: Plasma PK of digoxin and rosuvastatin
Settings: male, human, in vivo, AUClast, Mean ± SD, plasma; Enzalutamide + cocktail (day 64)
quantity: AUC(0-t) (ng·h/mL)

I = CC(C)c1nc(N(C)S(C)(=O)=O)nc(-c2ccc(F)cc2)c1/C=C/[C@@H](O)C[C@@H](O)CC(=O)O
II = C[C@H]1O[C@@H](O[C@H]2[C@@H](O)C[C@H](O[C@H]3[C@@H](O)C[C@H](O[C@H]4CC[C@@]5(C)[C@H](CC[C@@H]6[C@@H]5C[C@@H](O)[C@]5(C)[C@@H](C7=CC(=O)OC7)CC[C@]65O)C4)O[C@@H]3C)O[C@@H]2C)C[C@H](O)[C@@H]1O
stdin: Looking at I and II , which one comes out lower in AUC(0-t) terms? // return label of chosen record
stdout: II

----------
Test: Urine PK of digoxin in men with mCRPC
Assay type: in vivo, human
Conditions: male, human, urine, oral, CLR, Median (range), Cocktail (day 1)
quantity: CL renal (mL/min)
Provide only the numeric value, understood in mL/min.

Kindly note the recorded CL renal for "C[C@H]1O[C@@H](O[C@H]2[C@@H](O)C[C@H](O[C@H]3[C@@H](O)C[C@H](O[C@H]4CC[C@@]5(C)[C@H](CC[C@@H]6[C@@H]5C[C@@H](O)[C@]5(C)[C@@H](C7=CC(=O)OC7)CC[C@]65O)C4)O[C@@H]3C)O[C@@H]2C)C[C@H](O)[C@@H]1O" , which is 100

----------
Test: Plasma PK of digoxin and rosuvastatin
Details: male, human, in vivo, AUCinf, GLSM, plasma; Cocktail (day 1)
quantity: AUC(0-inf) (ng·h/mL)

P = CC(C)c1nc(N(C)S(C)(=O)=O)nc(-c2ccc(F)cc2)c1/C=C/[C@@H](O)C[C@@H](O)CC(=O)O
Q = C[C@H]1O[C@@H](O[C@H]2[C@@H](O)C[C@H](O[C@H]3[C@@H](O)C[C@H](O[C@H]4CC[C@@]5(C)[C@H](CC[C@@H]6[C@@H]5C[C@@H](O)[C@]5(C)[C@@H](C7=CC(=O)OC7)CC[C@]65O)C4)O[C@@H]3C)O[C@@H]2C)C[C@H](O)[C@@H]1O
stdin: Looking at P and Q , which one comes out lower in AUC(0-inf) terms? // return label of chosen record
stdout: Q

----------
Assay: Urine PK of digoxin in men with mCRPC
Assay type: in vivo, human
Conditions: male, human, urine, oral, CLR, Mean ± SD, Cocktail (day 1)
quantity: CL renal (mL/min)
Provide only the numeric value, understood in mL/min.

Kindly note the recorded CL renal for C[C@H]1O[C@@H](O[C@H]2[C@@H](O)C[C@H](O[C@H]3[C@@H](O)C[C@H](O[C@H]4CC[C@@]5(C)[C@H](CC[C@@H]6[C@@H]5C[C@@H](O)[C@]5(C)[C@@H](C7=CC(=O)OC7)CC[C@]65O)C4)O[C@@H]3C)O[C@@H]2C)C[C@H](O)[C@@H]1O [digoxin] , which is 105

----------
Assay: Plasma PK of digoxin and rosuvastatin
Conditions: male, human, in vivo, Cmax, Median (range), plasma; Cocktail (day 1)
quantity: Cmax (ng/mL)

P = C[C@H]1O[C@@H](O[C@H]2[C@@H](O)C[C@H](O[C@H]3[C@@H](O)C[C@H](O[C@H]4CC[C@@]5(C)[C@H](CC[C@@H]6[C@@H]5C[C@@H](O)[C@]5(C)[C@@H](C7=CC(=O)OC7)CC[C@]65O)C4)O[C@@H]3C)O[C@@H]2C)C[C@H](O)[C@@H]1O [digoxin]
Q = CC(C)c1nc(N(C)S(C)(=O)=O)nc(-c2ccc(F)cc2)c1/C=C/[C@@H](O)C[C@@H](O)CC(=O)O [rosuvastatin]
stdin: Looking at P and Q , which one comes out lower in Cmax terms? // return label of chosen record
stdout: P

----------
Assay: clinical
Conditions: male, human, plasma, po, 160 mg
quantity: Cmax (ng/mL)
Provide only the numeric value, understood in ng/mL.

Kindly note the recorded Cmax for CNC(=O)c1ccc(N2C(=S)N(c3ccc(C#N)c(C(F)(F)F)c3)C(=O)C2(C)C)cc1F [enzalutamide] , which is 17100

----------
Assay: Plasma PK of digoxin and rosuvastatin
Conditions: male, human, in vivo, AUClast, Median (range), plasma; Enzalutamide + cocktail (day 64)
quantity: AUC(0-t) (ng·h/mL)

A = C[C@H]1O[C@@H](O[C@H]2[C@@H](O)C[C@H](O[C@H]3[C@@H](O)C[C@H](O[C@H]4CC[C@@]5(C)[C@H](CC[C@@H]6[C@@H]5C[C@@H](O)[C@]5(C)[C@@H](C7=CC(=O)OC7)CC[C@]65O)C4)O[C@@H]3C)O[C@@H]2C)C[C@H](O)[C@@H]1O
B = CC(C)c1nc(N(C)S(C)(=O)=O)nc(-c2ccc(F)cc2)c1/C=C/[C@@H](O)C[C@@H](O)CC(=O)O
stdin: Pick the one with the larger AUC(0-t): A vs B // return label of chosen record
stdout: B

----------
Assay: Plasma PK of digoxin and rosuvastatin
Conditions: male, human, in vivo, AUClast, Mean ± SD, plasma; Cocktail (day 1)
quantity: AUC(0-t) (ng·h/mL)

I = CC(C)c1nc(N(C)S(C)(=O)=O)nc(-c2ccc(F)cc2)c1/C=C/[C@@H](O)C[C@@H](O)CC(=O)O
II = C[C@H]1O[C@@H](O[C@H]2[C@@H](O)C[C@H](O[C@H]3[C@@H](O)C[C@H](O[C@H]4CC[C@@]5(C)[C@H](CC[C@@H]6[C@@H]5C[C@@H](O)[C@]5(C)[C@@H](C7=CC(=O)OC7)CC[C@]65O)C4)O[C@@H]3C)O[C@@H]2C)C[C@H](O)[C@@H]1O
stdin: Pick the one with the larger AUC(0-t): I vs II // return label of chosen record
stdout: I
(I: 61.8 ng·h/mL, II: 22.1 ng·h/mL)
